Cited source: patent US20190248902A1

Readings of Normalization to wt ASGR1 Binding for the listed binders
# target.desc: T1, human ASGR-1 mutant construct H203 (human, UniProt P07306 1-291)
# T1 construct: Arg/Glu scanning: non-arginine residues were changed to arginine; Transiently expressed on CHO-S cells
# T1 sequence: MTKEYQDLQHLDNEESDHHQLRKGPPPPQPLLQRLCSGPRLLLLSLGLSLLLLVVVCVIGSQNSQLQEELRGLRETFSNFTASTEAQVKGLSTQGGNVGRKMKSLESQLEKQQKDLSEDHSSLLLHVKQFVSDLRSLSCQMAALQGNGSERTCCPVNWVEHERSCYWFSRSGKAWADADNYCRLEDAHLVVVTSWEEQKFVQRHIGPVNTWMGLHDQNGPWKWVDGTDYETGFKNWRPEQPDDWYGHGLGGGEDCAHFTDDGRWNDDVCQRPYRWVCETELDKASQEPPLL
# procedure.summary: FACS ratio: H203 normalized value / wt normalized value
readout.label: Normalization to wt ASGR1 Binding

INSERT INTO results (binder, value_measured) VALUES
  ('175F4 (antibody, V domains shown, mAb) VH: QVQLQQSGPGLVKPSQTLSLTCAISGDSVSSNSAAWNWIRQSPSRGLEWLGRTYYRSKWYNAYPVSMESRISINPDTSKNQFSLQLNSVTPEDTAVYYCARDKAAGRNDFYYYGMDVWGQGTTVTVSS VL: QSALTQPASVSGSPGQSITISCTGTSSDVGRFNLVSWYQQHPGYAPKLMIYEVSKRPSGVSNRFSGSKSGNTASLTISGLQAEDEADYYCCSYAGSSTYVVFGGGTKLTVL', 1.04),
  ('25A4 (antibody, V domains shown, mAb) VH: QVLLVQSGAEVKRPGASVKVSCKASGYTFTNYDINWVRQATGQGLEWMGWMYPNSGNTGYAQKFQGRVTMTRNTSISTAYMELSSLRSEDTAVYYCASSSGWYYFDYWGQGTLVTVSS VL: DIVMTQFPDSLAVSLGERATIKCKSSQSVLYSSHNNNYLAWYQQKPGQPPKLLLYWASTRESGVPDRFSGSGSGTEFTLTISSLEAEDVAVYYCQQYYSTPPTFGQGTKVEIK', 1.27),
  ('4A2 (antibody, V domains shown, mAb) VH: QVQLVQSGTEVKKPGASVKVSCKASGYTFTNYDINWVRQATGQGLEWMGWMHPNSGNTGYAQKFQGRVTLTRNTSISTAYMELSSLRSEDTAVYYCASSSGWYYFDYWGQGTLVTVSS VL: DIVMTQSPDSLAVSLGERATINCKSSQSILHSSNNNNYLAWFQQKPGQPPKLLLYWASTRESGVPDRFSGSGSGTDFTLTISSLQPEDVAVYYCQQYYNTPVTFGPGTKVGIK', 0.997),
  ('7E11 (antibody, V domains shown, mAb) VH: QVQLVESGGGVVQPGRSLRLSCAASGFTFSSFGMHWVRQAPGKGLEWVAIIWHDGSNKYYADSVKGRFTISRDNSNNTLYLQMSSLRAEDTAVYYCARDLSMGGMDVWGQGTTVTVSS VL: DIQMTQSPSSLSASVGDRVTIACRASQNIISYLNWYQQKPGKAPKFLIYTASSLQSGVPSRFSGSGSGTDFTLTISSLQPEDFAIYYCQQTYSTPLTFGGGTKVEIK', 1.42),
  ('194C1 (antibody, V domains shown, mAb) VH: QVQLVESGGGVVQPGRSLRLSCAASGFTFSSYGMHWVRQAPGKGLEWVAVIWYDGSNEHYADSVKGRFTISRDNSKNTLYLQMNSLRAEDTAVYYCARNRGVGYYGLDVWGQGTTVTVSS VL: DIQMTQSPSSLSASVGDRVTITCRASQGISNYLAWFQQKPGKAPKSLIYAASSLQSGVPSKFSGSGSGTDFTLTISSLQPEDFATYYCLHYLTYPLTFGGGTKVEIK', 0.868),
  ('7G4 (antibody, V domains shown, mAb) VH: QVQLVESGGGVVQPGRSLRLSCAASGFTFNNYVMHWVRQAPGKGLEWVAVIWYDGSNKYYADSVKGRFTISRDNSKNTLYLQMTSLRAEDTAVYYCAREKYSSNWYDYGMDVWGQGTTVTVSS VL: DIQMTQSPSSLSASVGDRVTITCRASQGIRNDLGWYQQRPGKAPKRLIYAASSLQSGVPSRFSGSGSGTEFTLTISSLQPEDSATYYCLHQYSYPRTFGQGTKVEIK', 1.2),
  ('59F2 (antibody, V domains shown, mAb) VH: EVQLVESGGGLVQPGGSLRLSCGASGFTFSSYSMNWVRQAPGKGLEWVSYISGSSNIIYYTDSVKGRFTISRDNAKNSLYLQMNSLRDEDTAVYYCARADTPMVLYFYGMDVWGQGTTVTVSS VL: SYELTQPPSVSVSPGQTASITCSGDKLGDKYASWYQQRPGQSPVLVIYQDNKRPSGIPERFSGSNSGNTATLTISGTQAMDEADYYCQAWDNNTVVFGGGTKLTVL', 9.53),
  ('199A7 (antibody, V domains shown, mAb) VH: QVQLVESGGGVVQPGRSLRLSCAASGFTFSNYGMHWVRQAPGKGLEWVAIIWFDGSNKYYADSVKGRFTISRDNSKNTLFLQMSSLRAEDTAVYYCAREWLQFRYYYGMDVWGQGTTVTVSS VL: DIQMTQSPSSLSASVGDRVTITCRASQGIRKDLGWYQQKPGKAPKRLIYAASSLQSGVPSRFSGSGSGTEFTLTISSLQPEDFATYVCLQHYRYPFTFGPGTKVDFK', 0.826),
  ('61A1 (antibody, V domains shown, mAb) VH: QVQLQESGPGLVKPSETLSLTCTVSGGSISSHFWSWIRQPAGKGLEWIGRIYIRGSTNYNPSLKSRVTMSVDTSKNQFSLKLSSVTAADTAVYYCAREGKTGGVSYFDYWGQGTLVTVSS VL: DIQMTQSPSSLSASVGDRVTITCRASQSISSYLNWYQQKPGKAPKLLIYAASSLQSGVPSRFSGSGSGTDFTLTISSLQPEDFAPYYCQQSYNISFTFGPGTKVDIK', 0.911),
  ('48B12 (antibody, V domains shown, mAb) VH: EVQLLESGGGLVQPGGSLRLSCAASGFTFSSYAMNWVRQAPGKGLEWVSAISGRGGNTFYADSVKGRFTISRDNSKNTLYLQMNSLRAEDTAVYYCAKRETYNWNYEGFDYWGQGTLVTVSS VL: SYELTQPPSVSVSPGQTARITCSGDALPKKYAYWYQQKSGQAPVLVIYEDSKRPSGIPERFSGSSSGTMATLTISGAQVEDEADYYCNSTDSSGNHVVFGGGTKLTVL', 1.18);
